Origin of the recorded values: ChEMBL document CHEMBL4007511

# testMethodNotes: in vitro
# cond: human, Caco-2
# Description: Apparent permeability across basolateral to apical side in human Caco2 cells at 10 uM
reportedMetric: Papp B→A at 10 µM
Numeric answer plus unit only.

For the molecule CO[C@@H]1CC[C@@]2(C)[C@@H](C1)C[C@@H](OS(=O)(=O)[O-])[C@@H]1[C@@H]2CC[C@]2(C)[C@@H]([C@H](C)CCC(=O)c3nnn[n-]3)CC[C@@H]12.[Na+].[Na+] , what Papp B→A at 10 µM is on record?
0.4 ×10⁻⁶ cm/s

###

# System: Clostridioides difficile
# testMethodNotes: Induction of spore germination in Clostridium difficile NAP1 at 1500 to 2000 uM measured after 20 mins under anaerobic condition
reportedMetric: Activity

C[C@H](CCC(=O)O)[C@H]1CC[C@H]2[C@@H]3C[C@H](O)[C@@H]4C[C@H](O)CC[C@]4(C)[C@H]3CC[C@]12C [HYODEOXYCHOLIC_ACID] | Toxic
CO[C@@H]1CC[C@@]2(C)[C@@H](C1)C[C@H](O)[C@@H]1[C@@H]2CC[C@]2(C)[C@@H]([C@H](C)CCC(=O)O)CC[C@@H]12 | Toxic
CC(=O)O[C@@H]1CC[C@@]2(C)[C@@H](C1)C[C@H](OC(C)=O)[C@@H]1[C@@H]2CC[C@]2(C)[C@@H]([C@H](C)CCC(N)=O)CC[C@@H]12 | Toxic
CO[C@@H]1CC[C@@]2(C)[C@@H](C1)C[C@@H](O)[C@@H]1[C@@H]2CC[C@]2(C)[C@@H]([C@H](C)CCC(=O)O)CC[C@@H]12 | Toxic

Would you kindly look at the next entry?
For the compound CO[C@H]1C[C@@H]2C[C@H](O)CC[C@]2(C)[C@H]2CC[C@]3(C)[C@@H]([C@H](C)CCC(=O)O)CC[C@H]3[C@H]12 , what Activity is on record?
Toxic
